study_system: recombinant human PDK1 (amino acids 51-556) (Homo sapiens, UniProt O15530)
Construct: containing amino acids 51-556 of the human PDK1 enzyme; made in house
measurement_notes: PDK1 IMAP fluorescence polarization kinase assay
Format: biochemical
particulars: 10 nM PDK1, 100 nM peptide substrate, 100 nM PIFtide, 2.5 uM ATP, 1.5 hours; rated A-D
Provide the reported IC50 of each item.

Record request: IC50 value, item NCC1CCN(c2ccc(N)cc2NC(=O)c2csc(-c3cnn(Cc4cccs4)c3)n2)CC1 1 to 50 nM

Record request: IC50 value, item COC(=O)c1cccc(F)c1Cn1cc(-c2nc(C(=O)Nc3cccc(F)c3N3CCC[C@@H](N)C3)cs2)cn1 251 to 1000 nM

Record request: IC50 value, item NCc1ccccc1Cn1cc(-c2nc(C(=O)Nc3cccc(F)c3N3CCC[C@@H](N)C3)cs2)cn1 251 to 1000 nM

Record request: IC50 value, item N[C@@H]1CCCN(c2c(F)cccc2NC(=O)c2csc(-c3cnn(Cc4ccccn4)c3)n2)C1 51 to 250 nM

Record request: IC50 value, item Nc1ccc(N2CCC[C@@H](N)C2)c(NC(=O)c2csc(-c3cnn(Cc4cccnc4)c3)n2)c1 1 to 50 nM

Record request: IC50 value, item Nc1ccc(N2CCC3(CCCNC3)CC2)c(NC(=O)c2csc(-c3cnn(Cc4ccccn4)c3)n2)c1 51 to 250 nM

Record request: IC50 value, item NCC1CCN(c2c(F)cccc2NC(=O)c2csc(-c3cnn(Cc4cccs4)c3)n2)CC1 51 to 250 nM

Record request: IC50 value, item N[C@@H]1CCCN(c2c(F)cccc2NC(=O)c2csc(-c3cnn(Cc4c(F)cc(F)cc4F)c3)n2)C1 251 to 1000 nM

Record request: IC50 value, item Nc1ccc(N2CC[C@@H](N)C2)c(NC(=O)c2csc(-c3cnn(Cc4cccs4)c3)n2)c1 1 to 50 nM

Record request: IC50 value, item Nc1ccc(N2CCC3(CC2)OCCO3)c(NC(=O)c2csc(-c3cnn(Cc4cccs4)c3)n2)c1 51 to 250 nM

Record request: IC50 value, item Nc1ccc(N2CC[C@@H](N)C2)c(NC(=O)c2csc(-c3cnn(Cc4ccccn4)c3)n2)c1 51 to 250 nM

* * *

Provide the reported IC50 of each item.
study_system: recombinant human PDK1 (amino acids 51-556) (Homo sapiens, UniProt O15530)
Construct: containing amino acids 51-556 of the human PDK1 enzyme; made in house
measurement_notes: PDK1 IMAP fluorescence polarization kinase assay
Type: biochemical
particulars: 10 nM PDK1, 100 nM peptide substrate, 100 nM PIFtide, 2.5 uM ATP, 1.5 hours; rated A-D

Record request: IC50 value, item Nc1ccc(N2CCC[C@@H](N)C2)c(NC(=O)c2csc(-c3cnn(Cc4ccccn4)c3)n2)c1 1 to 50 nM

Record request: IC50 value, item N[C@@H]1CCCN(c2c(F)cccc2NC(=O)c2csc(-c3cnn(Cc4ccccc4)c3)n2)C1 51 to 250 nM

Record request: IC50 value, item N[C@@H]1CCCN(c2c(F)cccc2NC(=O)c2csc(-c3cnn(Cc4ccccc4OC(F)F)c3)n2)C1 251 to 1000 nM

Record request: IC50 value, item N[C@@H]1CCCN(c2c(F)cccc2NC(=O)c2csc(-c3cnn(Cc4ccccc4OC(F)(F)F)c3)n2)C1 > 1000 nM

Record request: IC50 value, item N[C@@H]1CCCN(c2c(F)cccc2NC(=O)c2csc(-c3cnn(Cc4ccccc4CO)c3)n2)C1 51 to 250 nM

Record request: IC50 value, item N[C@@H]1CCCN(c2c(F)cccc2NC(=O)c2csc(-c3cnn(CCCOc4ccccc4)c3)n2)C1 > 1000 nM

Record request: IC50 value, item N[C@@H]1CCCN(c2c(F)cccc2NC(=O)c2csc(-c3cnn(Cc4c(F)cccc4CO)c3)n2)C1 51 to 250 nM

Record request: IC50 value, item CC(c1ccccc1)n1cc(-c2nc(C(=O)Nc3cc(N)ccc3N3CCC[C@@H](N)C3)cs2)cn1 (stereo partly drawn) 51 to 250 nM

Record request: IC50 value, item Nc1ccc(N2CCC[C@@H](N)C2)c(NC(=O)c2csc(-c3cnn(Cc4ccccc4F)c3)n2)c1 1 to 50 nM

Record request: IC50 value, item N[C@@H]1CCCN(c2c(F)cccc2NC(=O)c2csc(-c3cnn(Cc4c(F)cccc4F)c3)n2)C1 51 to 250 nM

Record request: IC50 value, item Nc1ccc(N2CCC[C@@H](N)C2)c(NC(=O)c2csc(-c3cnn(Cc4ccncc4)c3)n2)c1 51 to 250 nM

Record request: IC50 value, item NCC1CCN(c2ccc(N)cc2NC(=O)c2csc(-c3cnn(Cc4ccccn4)c3)n2)CC1 51 to 250 nM

Record request: IC50 value, item Nc1ccc(N2CCC[C@@H](N)C2)c(NC(=O)c2csc(-c3cnn(Cc4cc(F)ccc4F)c3)n2)c1 1 to 50 nM

Record request: IC50 value, item Nc1ccc(N2CCC[C@@H](N)C2)c(NC(=O)c2csc(-c3cnn(CCc4ccccc4)c3)n2)c1 1 to 50 nM

Record request: IC50 value, item N[C@@H]1CCCN(c2c(F)cccc2NC(=O)c2csc(-c3cnn(Cc4ccccc4-c4cn[nH]c4)c3)n2)C1 > 1000 nM

* * *

study_system: recombinant human PDK1 (amino acids 51-556) (Homo sapiens)
Construct: containing amino acids 51-556 of the human PDK1 enzyme; made in house
Sequence (O15530 51-556): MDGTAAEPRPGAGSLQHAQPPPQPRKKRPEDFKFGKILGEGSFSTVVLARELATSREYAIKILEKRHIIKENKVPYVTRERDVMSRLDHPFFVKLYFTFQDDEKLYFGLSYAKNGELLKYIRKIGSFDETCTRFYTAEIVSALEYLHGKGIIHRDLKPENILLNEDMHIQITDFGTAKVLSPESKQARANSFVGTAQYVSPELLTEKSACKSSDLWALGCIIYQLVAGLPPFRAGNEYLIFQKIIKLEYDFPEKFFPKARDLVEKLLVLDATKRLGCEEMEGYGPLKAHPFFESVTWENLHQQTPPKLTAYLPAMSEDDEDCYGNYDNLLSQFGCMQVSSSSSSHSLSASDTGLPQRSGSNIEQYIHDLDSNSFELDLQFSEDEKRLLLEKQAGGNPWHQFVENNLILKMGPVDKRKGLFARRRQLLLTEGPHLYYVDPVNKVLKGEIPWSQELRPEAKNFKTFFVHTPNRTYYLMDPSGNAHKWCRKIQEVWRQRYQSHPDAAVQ
measurement_notes: PDK1 IMAP fluorescence polarization kinase assay
Type: biochemical
particulars: 10 nM PDK1, 100 nM peptide substrate, 100 nM PIFtide, 2.5 uM ATP, 1.5 hours; rated A-D
pIC50: −log10 of the molar value.
Provide the reported pIC50 of each item.

pIC50 of N[C@@H]1CCCN(c2c(F)cccc2NC(=O)c2csc(-c3cnn(Cc4cccc(F)c4F)c3)n2)C1 [Compound 52] on recombinant human PDK1 (amino acids 51-556) (Homo sapiens)? 6.60 to 7.29

pIC50 of N[C@@H]1CCCN(c2c(F)cccc2NC(=O)c2csc(-c3cnn(CCOCc4ccccc4)c3)n2)C1 [Compound 40] on recombinant human PDK1 (amino acids 51-556) (Homo sapiens)? 6.00 to 6.60

pIC50 of Nc1ccc(N2CCC[C@@H](N)C2)c(NC(=O)c2csc(-c3cnn(Cc4cc(F)cc(F)c4)c3)n2)c1 [Compound 16] on recombinant human PDK1 (amino acids 51-556) (Homo sapiens)? 7.30 to 9.00

pIC50 of COCCn1cc(-c2nc(C(=O)Nc3cc(N)ccc3N3CCC[C@@H](N)C3)cs2)cn1 [Compound 26] on recombinant human PDK1 (amino acids 51-556) (Homo sapiens)? 7.30 to 9.00

pIC50 of CCOC(=O)C1CCN(c2ccc(N)cc2NC(=O)c2csc(-c3cnn(Cc4cccs4)c3)n2)CC1 [Compound 12] on recombinant human PDK1 (amino acids 51-556) (Homo sapiens)? 6.00 to 6.60

pIC50 of CCOC(=O)C1CCCN(c2ccc(N)cc2NC(=O)c2csc(-c3cnn(Cc4cccs4)c3)n2)C1 (stereo not drawn) [Compound 11] on recombinant human PDK1 (amino acids 51-556) (Homo sapiens)? < 6.00

pIC50 of Nc1ccc(N2CCC[C@@H](N)C2)c(NC(=O)c2csc(-c3cnn(CCN4CCOCC4)c3)n2)c1 [Compound 4] on recombinant human PDK1 (amino acids 51-556) (Homo sapiens)? 6.00 to 6.60

pIC50 of Nc1ccc(N2CCC[C@@H](N)C2)c(NC(=O)c2csc(-c3cnn(Cc4ccc(F)c(F)c4)c3)n2)c1 [Compound 14] on recombinant human PDK1 (amino acids 51-556) (Homo sapiens)? 7.30 to 9.00

pIC50 of N[C@@H]1CCCN(c2c(F)cccc2NC(=O)c2csc(-c3cnn(Cc4cccs4)c3)n2)C1 [Compound 23] on recombinant human PDK1 (amino acids 51-556) (Homo sapiens)? 7.30 to 9.00

pIC50 of N[C@@H]1CCCN(c2c(F)cccc2NC(=O)c2csc(-c3cnn(Cc4ccccc4Br)c3)n2)C1 [Compound 49] on recombinant human PDK1 (amino acids 51-556) (Homo sapiens)? 6.00 to 6.60

pIC50 of Nc1ccc(N2CCC[C@@H](N)C2)c(NC(=O)c2csc(-c3cnn(Cc4cccc(F)c4)c3)n2)c1 [Compound 19] on recombinant human PDK1 (amino acids 51-556) (Homo sapiens)? 7.30 to 9.00

pIC50 of Nc1ccc(N2CCC3(CC2)OCCO3)c(NC(=O)c2csc(-c3cnn(Cc4cccc(F)c4)c3)n2)c1 [Compound 15] on recombinant human PDK1 (amino acids 51-556) (Homo sapiens)? 7.30 to 9.00

pIC50 of CN(C)CCCn1cc(-c2nc(C(=O)Nc3cc(N)ccc3N3CCC[C@@H](N)C3)cs2)cn1 [Compound 2] on recombinant human PDK1 (amino acids 51-556) (Homo sapiens)? 6.00 to 6.60

pIC50 of N[C@@H]1CCCN(c2c(F)cccc2NC(=O)c2csc(-c3cnn(Cc4cccnc4)c3)n2)C1 [Compound 31] on recombinant human PDK1 (amino acids 51-556) (Homo sapiens)? 6.60 to 7.29

pIC50 of N[C@@H]1CCCN(c2c(F)cccc2NC(=O)c2csc(-c3cnn(Cc4c(F)cccc4C(F)(F)F)c3)n2)C1 [Compound 35] on recombinant human PDK1 (amino acids 51-556) (Homo sapiens)? < 6.00
